target: Pseudomonas aeruginosa LpxC enzyme (Pseudomonas aeruginosa (strain ATCC 15692 / DSM 22644 / CIP 104116 / JCM 14847 / LMG 12228 / 1C / PRS 101 / PAO1), UniProt P47205); experiment: biochemical; type: biochemical; details: inhibitory activity on Pseudomonas aeruginosa LpxC enzyme, class symbols A/B/C; read-out: Enzyme inhibitory activity
pIC50: −log10 of the molar value.
For each entry below, report its pIC50 value.

# input Using the record for CNC(=O)C(C(=O)NO)N(C)C(=O)c1ccc(-c2ccc(OCCCN3CC=CCC3)cc2)cc1 (stereo not shown) , report its pIC50.
# output 7.00 to 8.00

# input # iterate: CSCCNC(=O)C(NC(=O)c1ccc(-c2ccc(OCCO)cc2)cc1)C(=O)NO (stereo not shown)
# output > 8.00

# input # iterate: CCCNc1ccc(C#Cc2ccc(C(=O)N(C)C(C(=O)NC)C(=O)NO)cc2)nc1 (stereo not shown)
# output 7.00 to 8.00

# input # iterate: CNC(=O)C(C(=O)NO)N(C)C(=O)c1ccc(-c2ccc(NC)c(OC)c2)cc1 (stereo not shown)
# output 7.00 to 8.00

* * *

For each entry below, report its pIC50 value.
target: Pseudomonas aeruginosa LpxC enzyme (Pseudomonas aeruginosa (strain ATCC 15692 / DSM 22644 / CIP 104116 / JCM 14847 / LMG 12228 / 1C / PRS 101 / PAO1)); assay: biochemical; assay type: biochemical; settings: inhibitory activity on Pseudomonas aeruginosa LpxC enzyme, class symbols A/B/C; read-out: Enzyme inhibitory activity
pIC50: −log10 of the molar value.

# input Using the record for CNC(=O)C(C(=O)NO)N(C)C(=O)c1ccc(-c2ccc(C(=O)N(C)C)cc2)cc1 (centres unmarked) [Compound 252] , report its pIC50.
# output 7.00 to 8.00

# input # iterate: COCCNC(=O)C(NC(=O)c1ccc(-c2ccc(OCCO)cc2)cc1)C(=O)NO (centres unmarked) [Compound 131]
# output 7.00 to 8.00

# input # iterate: CNC(=O)C(C(=O)NO)N(C)C(=O)c1ccc(-c2ccsc2)cc1 (centres unmarked) [Compound 292]
# output 7.00 to 8.00

# input # iterate: CNC(=O)C(C(=O)NO)N(C)C(=O)c1ccc(-c2ccc3nonc3c2)cc1 (centres unmarked) [Compound 189]
# output 7.00 to 8.00

# input # iterate: CNC(=O)C(C(=O)NO)N(C)C(=O)c1ccc(C#Cc2ccc(CNC3CCC3)cc2)cc1 (centres unmarked) [Compound 316]
# output 7.00 to 8.00

# input # iterate: CNC(=O)C(C(=O)NO)N(C)C(=O)c1ccc(-c2ccc3c(c2)cc(CO)n3C)cc1 (centres unmarked) [Compound 41]
# output > 8.00

# input # iterate: CNC(=O)C(C(=O)NO)N(C)C(=O)c1ccc(-c2cnc3ccccc3c2)cc1 (centres unmarked) [Compound 192]
# output 7.00 to 8.00

# input # iterate: CNC(=O)C(C(=O)NO)N(C)C(=O)c1ccc(OC(F)(F)C(F)F)cc1 (centres unmarked) [Compound 47]
# output < 7.00

* * *

test system: Klebsiella pneumoniae strain ATCC13883; assay: Antimicrobial activity, MIC by broth microdilution; assay type: cell-based; settings: Table 4, 35° C., 18 hours, read-out: Klebsiella pneumoniae ATCC 13883 strain MIC
measure-name: MIC (µg/mL)
Give the number; µg/mL is assumed, so skip it.

# input Using the record for CCOc1ccc(-c2ccc(C(=O)N(C)[C@@](C)(C(=O)NC)C(=O)NO)cc2)cc1 , report its MIC.
# output 0.5

# input # iterate: CNC(=O)[C@@](C)(C(=O)NO)N(C)C(=O)c1ccc(C#Cc2ccc(CNCc3ccco3)cc2)cc1
# output 0.25

# input # iterate: CNC(=O)[C@@](C)(C(=O)NO)N(C)C(=O)c1ccc(C#Cc2ccc(CN3CCCOCC3)cc2)cc1
# output 1

# input # iterate: CNC(=O)[C@@](C)(C(=O)NO)N(C)C(=O)c1ccc(C#Cc2coc(CNC3CC3)c2)cc1
# output 1

# input # iterate: CNC(=O)[C@@](C)(C(=O)NO)N(C)C(=O)c1ccc(C#Cc2ccc(CCN3CCOCC3)cc2)cc1
# output 1

# input # iterate: CNC(=O)[C@@](C)(C(=O)NO)N(C)C(=O)c1ccc(C#Cc2ccc(CN3CC(OCCF)C3)cc2)cc1
# output 1

# input # iterate: CNC(=O)[C@@](C)(C(=O)NO)N(C)C(=O)c1ccc(C#Cc2coc(COC)c2)cc1
# output 1
